Entries and their measured LDH Increase - Index Value follow.
tested on: Hepatotoxicity; test: FDA HLAED, lactate dehydrogenase (LDH) increase; conditions: human
RECORDED_ENDPOINT: LDH Increase - Index Value

molecule="Clc1ccc(C(Cn2ccnc2)OCc2ccsc2Cl)c(Cl)c1 (centres undefined)" recorded_endpoint="LDH Increase - Index Value" reported_result=0
molecule=C[C@H](CCC(=O)O)[C@H]1CC[C@H]2[C@@H]3[C@H](O)C[C@@H]4C[C@H](O)CC[C@]4(C)[C@H]3CC[C@]12C recorded_endpoint="LDH Increase - Index Value" reported_result=0
molecule="CC(C)(C)c1ccc(C(O)CCCN2CCC(C(O)(c3ccccc3)c3ccccc3)CC2)cc1 (centres undefined)" recorded_endpoint="LDH Increase - Index Value" reported_result=0.2
molecule="O=P1(NCCCl)OCCCN1CCCl (centres undefined) [IFOSFAMIDE]" recorded_endpoint="LDH Increase - Index Value" reported_result=7.5

* * *

test system: Hepatotoxicity; assay: FDA HLAED, serum glutamic oxaloacetic transaminase (SGOT) increase; conditions: human
RECORDED_ENDPOINT: SGOT Increase - Number of Reports

compound="CC(C)c1cccc(C(C)C)c1O [PROPOFOL]" reported_result=">= 4"
compound="CCCc1c2oc(C(=O)O)cc(=O)c2cc2c(=O)cc(C(=O)O)n(CC)c12 [NEDOCROMIL]" reported_result="< 4"
compound="CCCCCCCCCCCCCCCCCC(=O)O.CC[C@H]1OC(=O)[C@H](C)[C@@H](O[C@H]2C[C@@](C)(OC)[C@@H](O)[C@H](C)O2)[C@H](C)[C@@H](O[C@@H]2O[C@H](C)C[C@H](N(C)C)[C@H]2OC(C)=O)[C@](C)(O)C[C@@H](C)C(=O)[C@H](C)[C@@H](O)[C@]1(C)O [ERYTHROMYCIN ACISTRATE]" reported_result=">= 4"
compound="CC=CC1=C(C(=O)O)N2C(=O)[C@@H](NC(=O)[C@H](N)c3ccc(O)cc3)[C@H]2SC1 [CEFPROZIL]" reported_result=">= 4"
compound="Sc1ncnc2nc[nH]c12 [MERCAPTOPURINE ANHYDROUS]" reported_result=">= 4"
compound="CC(C)(C#N)c1cc(Cn2cncn2)cc(C(C)(C)C#N)c1 [ANASTROZOLE]" reported_result=">= 4"
compound="CC(C)(C)NC[C@H](O)COc1cccc2c1CCCC2=O [LEVOBUNOLOL]" reported_result="< 4"
compound="CCC1(c2ccc(N)cc2)CCC(=O)NC1=O (stereo unspecified) [AMINOGLUTETHIMIDE]" reported_result="< 4"
compound="CO[C@]12CC[C@@]3(C[C@@H]1[C@](C)(O)C(C)(C)C)[C@H]1Cc4ccc(O)c5c4[C@@]3(CCN1CC1CC1)[C@H]2O5 [BUPRENORPHINE]" reported_result="< 4"
compound="CCN(CC)CCOc1ccc(/C(=C(/Cl)c2ccccc2)c2ccccc2)cc1 [ENCLOMIPHENE]" reported_result=">= 4"
compound="N[C@@H](C(=O)N[C@@H]1C(=O)N2C(C(=O)O)=C(Cl)CC[C@H]12)c1ccccc1 [LORACARBEF ANHYDROUS]" reported_result="< 4"
compound="Clc1ccccc1CN1CCc2sccc2C1 [TICLOPIDINE]" reported_result="< 4"
compound="O=C(O)C1=C(CSc2nnnn2CS(=O)(=O)O)CS[C@@H]2[C@H](NC(=O)[C@H](O)c3ccccc3)C(=O)N12 [CEFONICID]" reported_result="< 4"
compound="C[C@]12CC[C@H]3[C@@H](CCC4=CC(=O)CC[C@@]43C)[C@@H]1CC[C@@H]2O [TESTOSTERONE]" reported_result="< 4"
compound="Cc1cn([C@H]2C=C[C@@H](CO)O2)c(=O)[nH]c1=O [STAVUDINE]" reported_result=">= 4"
compound="O=C(O)CCCCCCCC(=O)O [AZELAIC ACID]" reported_result="< 4"

* * *

tested on: Hepatotoxicity; assay: FDA HLAED, liver enzyme composite activity; conditions: human
RECORDED_ENDPOINT: Composite Activity - Active

compound="CCOC(=O)[C@H](CCc1ccccc1)N[C@@H](C)C(=O)N1[C@H](C(=O)O)C[C@H]2CCCC[C@@H]21 [TRANDOLAPRIL]" reported_result=1
compound=CC(=O)O.C[C@H]1C[C@@H]2[C@H]([C@@H](O)C[C@@]3(C)[C@H]2CC[C@]3(O)C(=O)CO)[C@@]2(C)C=CC(=O)C=C12 reported_result=0
compound="NCCCC[C@H](N[C@@H](CCc1ccccc1)C(=O)O)C(=O)N1CCC[C@H]1C(=O)O [LISINOPRIL ANHYDROUS]" reported_result=0
compound="CC(=O)O[C@H]1C[C@@H]2CC[C@@H]3[C@H](CC[C@@]4(C)[C@H]3C[C@H](N3CC[N+](C)(C)CC3)[C@@H]4OC(C)=O)[C@@]2(C)C[C@@H]1N1CC[N+](C)(C)CC1.[Br-].[Br-] [PIPECURONIUM BROMIDE]" reported_result=0
compound="FCOC(C(F)(F)F)C(F)(F)F [SEVOFLURANE]" reported_result=0
compound="CC1=C(/C=C/C(C)=C/C=C/C(C)=C/C(=O)O)C(C)(C)CCC1 [TRETINOIN]" reported_result=0
compound="C[C@@H]1O[C@@H]1P(=O)(O)O [FOSFOMYCIN]" reported_result=0

* * *

tested on: Hepatotoxicity; assay: FDA HLAED, alkaline phosphatase increase; settings: human
RECORDED_ENDPOINT: Alkaline Phosphatase Increase - Activity Score

compound="C[C@@H]1CN([C@H]2CC[C@](C#N)(c3ccc(F)cc3)CC2)CC[C@]1(C(=O)O)c1ccccc1 [LEVOCABASTINE]" subject_of_test=Hepatotoxicity reported_result=Inactive
compound="COCC1=C(C(=O)O)N2C(=O)[C@@H](NC(=O)/C(=N\\OC)c3csc(N)n3)[C@H]2SC1 [CEFPODOXIME]" subject_of_test=Hepatotoxicity reported_result=Inactive

* * *

system: Hepatotoxicity; experiment: FDA HLAED, alkaline phosphatase increase; settings: human
RECORDED_ENDPOINT: Alkaline Phosphatase Increase - Number of Reports

compound=COc1ccc2cc([C@H](C)C(=O)O)ccc2c1 reported_result="< 4"
compound=C[C@@H](O)[C@H]1C(=O)N2C(C(=O)O)=C(S[C@@H]3CN[C@H](C(=O)N(C)C)C3)[C@H](C)[C@H]12 reported_result="< 4"
compound="Clc1ccc(COC(Cn2ccnc2)c2ccc(Cl)cc2Cl)cc1 (centres undefined)" reported_result="< 4"
compound="CC(C)Cc1ccc(C(C)C(=O)O)cc1 (centres undefined)" reported_result=">= 4"
compound=Nc1ccn([C@H]2CC[C@@H](CO)O2)c(=O)n1 reported_result="< 4"
compound=CO/N=C(\C(=O)N[C@@H]1C(=O)N2C(C(=O)O)=C(COC(N)=O)CS[C@H]12)c1ccco1 reported_result="< 4"
compound=COc1cc(C(=O)NS(=O)(=O)c2ccccc2C)ccc1Cc1cn(C)c2ccc(NC(=O)OC3CCCC3)cc12 reported_result=">= 4"
compound="OC(c1cc(C(F)(F)F)nc2c(C(F)(F)F)cccc12)C1CCCCN1 (centres undefined)" reported_result="< 4"
compound=CN1CCN(C2=Nc3cc(Cl)ccc3Nc3ccccc32)CC1 reported_result=">= 4"
compound=CO/N=C(\C(=O)N[C@@H]1C(=O)N2C(C(=O)O)=CCS[C@H]12)c1csc(N)n1 reported_result=">= 4"
compound=CC[C@@]1(O)C(=O)OCc2c1cc1n(c2=O)Cc2cc3c(CN(C)C)c(O)ccc3nc2-1 reported_result="< 4"
compound=CC[C@H]1OC(=O)[C@H](C)[C@@H](O[C@H]2C[C@@](C)(OC)[C@@H](O)[C@H](C)O2)[C@H](C)[C@@H](O[C@@H]2O[C@H](C)C[C@H](N(C)C)[C@H]2O)[C@](C)(O)C[C@@H](C)CN(C)[C@H](C)[C@@H](O)[C@]1(C)O reported_result=">= 4"
compound=CC(C)(O/N=C(\C(=O)N[C@@H]1C(=O)N2C(C(=O)[O-])=C(C[n+]3ccccc3)CS[C@H]12)c1csc(N)n1)C(=O)O reported_result="< 4"
compound=CNCCC=C1c2ccccc2CCc2ccccc21 reported_result=">= 4"
compound=Nc1nc(F)nc2c1ncn2[C@@H]1O[C@H](CO)[C@@H](O)[C@@H]1O reported_result=">= 4"
compound=COC(=O)C1=C(C)NC(C)=C(C(=O)OC)C1c1ccccc1[N+](=O)[O-] reported_result="< 4"
compound=O=C(O)P(=O)(O)O reported_result=">= 4"
compound="CC(O)(CS(=O)(=O)c1ccc(F)cc1)C(=O)Nc1ccc(C#N)c(C(F)(F)F)c1 (centres undefined) [BICALUTAMIDE]" reported_result=">= 4"
compound=CN[C@H]1CC[C@@H](c2ccc(Cl)c(Cl)c2)c2ccccc21 reported_result=">= 4"
compound="NCC(CC(=O)O)c1ccc(Cl)cc1 (centres undefined)" reported_result=">= 4"
compound=Cc1ncc([N+](=O)[O-])n1CCO reported_result=">= 4"
compound="CCOC(=O)C1=C(COCCN)NC(C)=C(C(=O)OC)C1c1ccccc1Cl (centres undefined)" reported_result=">= 4"
compound=CCN[C@@H](C)Cc1cccc(C(F)(F)F)c1 reported_result="< 4"
compound="CC(Cc1ccc(O)c(O)c1)C(C)Cc1ccc(O)c(O)c1 (centres undefined) [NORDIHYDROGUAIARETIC ACID]" reported_result="< 4"
compound="CO/N=C(\\C(=O)N[C@@H]1C(=O)N2C(C(=O)OC(C)OC(C)=O)=C(COC(N)=O)CS[C@H]12)c1ccco1 (some centres undefined)" reported_result="< 4"
compound=CCn1nc(C(=O)O)c(=O)c2cc3c(cc21)OCO3 reported_result="< 4"
compound=Clc1ccccc1CN1CCc2sccc2C1 reported_result="< 4"
compound=CCOC(=O)c1ncn2c1CN(C)C(=O)c1cc(F)ccc1-2 reported_result="< 4"
compound=C#C[C@]1(O)CC[C@H]2[C@@H]3CCC4=CC(=O)CC[C@@H]4[C@H]3CC[C@@]21CC reported_result=">= 4"
compound=Cc1cn([C@H]2C[C@H](N=[N+]=[N-])[C@@H](CO)O2)c(=O)[nH]c1=O reported_result=">= 4"
compound="Cn1cc([S+](C)[O-])c(=O)c2ccc(F)cc21 (centres undefined)" reported_result="< 4"
compound=Clc1ccc(CO/N=C(\Cn2ccnc2)c2ccc(Cl)cc2Cl)c(Cl)c1 reported_result="< 4"
compound="C[C@]12CC[C@H]3[C@@H](CCC4=CC(=O)CC[C@@]43C)[C@@H]1CC[C@@H]2OC(=O)Cc1ccccc1 [TESTOSTERONE PHENYLACETATE]" reported_result="< 4"
compound="O=C(c1ccccc1)c1ccc2n1CCC2C(=O)O (centres undefined)" reported_result=">= 4"
